- experimental.protocol: Cytotoxicity against human Caco-2 cells assessed as inhibition of cell viability incubated for 48 hrs by Cell Titer GLO assay
- Assay type: toxicity, cell-based
observation.type: IC50 at 48 h (µg/mL)
API: value field is a number in µg/mL; no unit string.

Challenge: Report IC50 at 48 h for "CC[C@H](C)[C@H](O)C(=O)N[C@H](C(=O)N[C@@H](CC(C)C)C(=O)N[C@H](CCCN)C(=O)N[C@H](C(=O)N[C@H](C(=O)N[C@H](C(=O)N[C@H](CCCCN)C(=O)N[C@H](C(=O)N[C@H](C(=O)N[C@@H](CCCCN)C(=O)N[C@H](Cc1ccc(O)cc1)C(=O)N[C@@H](CC(C)C)C(=O)N[C@H](CO)C(C)C)C(C)C)C(C)C)C(C)C)[C@@H](C)CC)[C@@H](C)CC)[C@@H](C)O" please.
Response given: 32.2

###

For each of the compounds below, state its hemolysis at 1 h, 256 ug/ml.
- experimental.protocol: Hemolytic activity in human erythrocytes at 256 ug/ml measured after 1 hr by absorbance based assay relative to control
- Type: toxicity, cell-based, Erythrocyte
- run.parameters: at 256 µg/mL, read-out: Activity
Give me the value, and tack the unit on after it.

Challenge: Report hemolysis at 1 h, 256 ug/ml for "CC[C@H](NC(=O)[C@@H](NC(C)=O)[C@@H](C)CC)C(=O)N[C@@H](CC(C)C)C(=O)N[C@H](CCCN)C(=O)N[C@H](C(=O)N[C@H](C(=O)N[C@H](C(=O)N[C@H](CCCCN)C(=O)N[C@H](C(=O)N[C@H](C(=O)N[C@@H](CCCCN)C(=O)N[C@H](Cc1ccc(O)cc1)C(=O)N[C@@H](CC(C)C)C(=O)N[C@H](CO)C(C)C)C(C)C)C(C)C)C(C)C)[C@@H](C)CC)[C@@H](C)CC" please.
Response given: 38.2%

Challenge: Report hemolysis at 1 h, 256 ug/ml for "CC[C@H](C)[C@H](O)C(=O)N[C@@H](CO)C(=O)N[C@@H](CC(C)C)C(=O)N[C@H](CCCN)C(=O)N[C@H](C(=O)N[C@H](C(=O)N[C@H](C(=O)N[C@H](CCCCN)C(=O)N[C@H](C(=O)N[C@H](C(=O)N[C@@H](CCCCN)C(=O)N[C@H](Cc1ccc(O)cc1)C(=O)N[C@@H](CC(C)C)C(=O)N[C@H](CO)C(C)C)C(C)C)C(C)C)C(C)C)[C@@H](C)CC)[C@@H](C)CC" please.
Response given: 4.9%

###

- experimental.protocol: Cytotoxicity against human Caco-2 cells assessed as inhibition of cell viability incubated for 48 hrs by Cell Titer GLO assay
- Assay type: toxicity, cell-based
observation.type: IC50 at 48 h (µg/mL)
API: value field is a number in µg/mL; no unit string.

Challenge: Report IC50 at 48 h for "C/C=C(/NC(=O)[C@@H](O)[C@@H](C)CC)C(=O)N[C@@H](CC(C)C)C(=O)N[C@H](CCCN)C(=O)N[C@H](C(=O)N[C@H](C(=O)N[C@H](C(=O)N[C@H](CCCCN)C(=O)N[C@H](C(=O)N[C@H](C(=O)N[C@@H](CCCCN)C(=O)N[C@H](Cc1ccc(O)cc1)C(=O)N[C@@H](CC(C)C)C(=O)N[C@H](CO)C(C)C)C(C)C)[C@@H](C)CC)C(C)C)[C@@H](C)CC)[C@@H](C)CC" please.
Response given: 6.5

Challenge: Report IC50 at 48 h for "C/C=C(/NC(=O)[C@@H](O)[C@@H](C)CC)C(=O)N[C@@H](CC(C)C)C(=O)N[C@H](CCCN)C(=O)N[C@H](C(=O)N[C@H](C(=O)N[C@H](C(=O)N[C@H](CCCCN)C(=O)N[C@H](C(=O)N[C@H](C(=O)N[C@@H](CCCCN)C(=O)N[C@H](Cc1ccc(O)cc1)C(=O)N[C@@H](CC(C)C)C(=O)N[C@H](C(N)=O)C(C)C)C(C)C)C(C)C)C(C)C)[C@@H](C)CC)[C@@H](C)CC" please.
Response given: 16.6

Challenge: Report IC50 at 48 h for "C/C=C(/NC(=O)[C@@H](O)[C@@H](C)CC)C(=O)N[C@@H](CC(C)C)C(=O)N[C@H](CCCN)C(=O)N[C@H](C(=O)N[C@H](C(=O)N[C@H](C(=O)N[C@H](CCCCN)C(=O)N[C@H](C(=O)N[C@H](C(=O)N[C@@H](CCCCN)C(=O)N[C@H](Cc1ccc(O)cc1)C(=O)N[C@@H](CC(C)C)C(=O)N[C@H](CO)C(C)C)C(C)C)C(C)C)C(C)C)[C@@H](C)CC)[C@@H](C)CC" please.
Response given: 10.9
